assay: Human HepG2 cell viability assay in 384 well format; assay type: toxicity, cell-based; set-up: dose 125 nL, time 70.5 hour; concentration not given beside the values; details: HepG2 cells, read-out: Inhibition
Listed compounds paired with reported cytotoxicity at 70.5 h
assayEndpoint: cytotoxicity at 70.5 h (%)

* CC(=O)NCc1ccc(-c2ccccc2C(=O)O)cn1 | -1.2
* Cc1ccc(C(=O)Nc2nnc(CC(C)C)s2)c(-n2cnnn2)c1C | 29.7
* Cn1c(C2CC2)nc2c1CCN(CCc1ccccn1)C2 | -5.41
* CCCn1[nH]cc/c1=N\C(=O)CN1CCCC1Cn1cccn1 (stereo not drawn) | -6.25
* CC(C)(C)OC(=O)NCCC(=O)N(CCC#N)Cc1ccco1 | -0.853
* Cc1cc(N2CCN(C(=O)Cc3ccc4c(c3)OCO4)CC2)cc(C)n1 | -9.94
* O=C(CN1CCCCC1)Nc1ncc(Br)cc1Br | 48.9
* Cc1ncccc1NC(=O)C1=NOC2(CCN(Cc3nccs3)C2)C1 (stereo not drawn) | -11.1

====

test: Human HepG2 cell viability assay in 384 well format; type: toxicity, cell-based; set-up: dose 125 nL, time 70.5 hour; concentration not given beside the values; conditions: HepG2 cells, read-out: Inhibition
Reported cytotoxicity at 70.5 h by item:
assayEndpoint: cytotoxicity at 70.5 h (%)

• Cc1ccc(NC2CCN(C(=O)CC3CCCO3)CC2)nn1 (stereo not drawn) = -11.8
• O=C(CC1CC1)N[C@@H]1CN(C(=O)c2ccoc2)C[C@@H]2CCCO[C@@H]21 = -12.7
• CSCCC(=O)N[C@H]1CC[C@H](Nc2nccc(-c3ccncc3)n2)C1 = 23.8
• O=C(COc1ccccc1Br)N1CCOc2ccncc21 = -3.18
• CC[C@H]1CN(C(=O)c2cccc(-n3cnnc3)n2)CC[C@@]1(C)O = 19.7
• O=C(Cc1cc(F)cc(Cl)c1)N[C@@H]1CCNC[C@H]1O = -5.4
• O=C(c1cnc(-c2ncccn2)s1)N1CCCC1Cn1cccn1 (stereo not drawn) = -2.29
• Cc1nn(C)c(N(C)C)c1CNCC(O)COc1ccc(F)cc1 (stereo not drawn) = 2.45

====

Documented cytotoxicity at 70.5 h across a set of compounds
assay: Human HepG2 cell viability assay in 384 well format; assay type: toxicity, cell-based; design: dose 125 nL, time 70.5 hour; concentration not given beside the values; conditions: HepG2 cells, read-out: Inhibition
assayEndpoint: cytotoxicity at 70.5 h (%)

* CC(C1CCN(Cc2cnn(C)c2C2CC2)CC1)N1CCN(C)CC1 (stereo unspecified) | -3.33
* CCN(CC1CCCO1)C(=O)Nc1cc(C(N)=O)ccc1OC (stereo unspecified) | -5.25
* COc1ccc(CN2C[C@H](N3CCCC3=O)[C@@H]3OCCC[C@@H]32)cc1 | -7
* Cc1cnn(CC2CN(c3ccc(C#N)cn3)CCO2)c1 (stereo unspecified) | 23.6
* Cc1csc(N2CCC(NCC3(O)CCc4ccccc43)CC2)n1 (stereo unspecified) | -7.31
* CCS(=O)(=O)Nc1ccc2c(c1)OCC(C)(C)C(=O)N2C | 19
* Cc1cc(C)n2c(CNCc3ccc(OC(F)F)cc3)cnc2n1 | -9.15
* Cc1ccc(C(=O)N2CC(=O)N(Cc3cccs3)CC(O)C2)cc1 (stereo unspecified) | -0.413
* O=C(NCCc1cc2nc(-c3ccncc3)ccn2n1)C1CC1 | -6.41
* CCN1CCOC(CNCc2csc(C)n2)C1 (stereo unspecified) | -14.2
* O=C(c1ccc(Cl)cc1)N1CCn2c(nn(-c3ccncc3)c2=O)C1 | -8.19
* O=C(COc1cccnc1)N1CCOC(C(F)(F)F)C1 (stereo unspecified) | -0.535
* CCN(C)C(=O)c1cc(-c2cn(C(C)C)cn2)n2ccccc12 | 26.7
* Cc1cc(C)c(CNC(=O)N2CCC(N3CCNC3=O)CC2)c(C)c1 | -7.95
* O=C1CC(c2ccc3c(c2)OCO3)c2snc(C(=O)O)c2N1 (stereo unspecified) | -10.6
* Cc1noc(C)c1CN1Cc2nccn2CC(CN2CCOCC2)C1 (stereo unspecified) | -11.8
